Origin of measurements: patent US20250011413A1

Molecular target: T1, Human PF4 (CXCL4), biotinylated, without heparin (human, UniProt P02776 32-101, biotinylated with EZ-link-Sulfo-NHS-LC-Biotin (sites not given))
T1 construct: Immobilised on streptavidin biosensors for BLI; also called PF4 alone; platelet factor 4
T1 sequence: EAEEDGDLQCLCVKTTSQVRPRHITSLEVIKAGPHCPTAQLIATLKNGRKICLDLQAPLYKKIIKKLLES
Assay: BLI (Octet), biotinylated PF4 without heparin on streptavidin sensors, scFv at 1 µg/mL, 1:1 model, mean ± s.d. [cont.) b]
# koff >= 0.0001 s⁻¹ gives t, anything below gives f

Sample answers from the record:
BINDER	ASSIGNED LABEL
Mutant E scFv, scFv(Y156H, D180G, Q233P) (scFv, VL-linker-VH; histidine-tagged, from E. coli BL21; also called Mut E; not shown: histidine tag from the pADL-22c vector) scFv: DIQMIQSQKFMSTSVGDRVTVTCKASQNVGTNVAWYQQKPGQSPNALIYSASYRYSGVPDRFTGSGSGTDFTLTITNVQSEDLADYFCQQYNSYPLTFGTGTKLDLKGGGGSGGGGSGGGGSVQLQQSGAELVKPGASVKLSCKASGYTFTNYFIHWVKQRPGQGLEWIGEINPKNGDTGFNEKFESRATLTVDKSSSTAYMQLSSLTSEDSAIYYCTRSPYGNNYGFTYWGPGTLVTVSA	t
Mutant B scFv, scFv(R18K, N152K, D180N) (scFv, VL-linker-VH; histidine-tagged, from E. coli BL21; also called Mut B; not shown: histidine tag from the pADL-22c vector) scFv: DIQMIQSQKFMSTSVGDKVTVTCKASQNVGTNVAWYQQKPGQSPNALIYSASYRYSGVPDRFTGSGSGTDFTLTITNVQSEDLADYFCQQYNSYPLTFGTGTKLDLKGGGGSGGGGSGGGGSVQLQQSGAELVKPGASVKLSCKASGYTFTKYFIYWVKQRPGQGLEWIGEINPRNGDTNFNEKFESRATLTVDKSSSTAYMQLSSLTSEDSAIYYCTRSPYGNNYGFTYWGQGTLVTVSA	f
Wildtype scFv (KKO-derived single chain variable fragment) (scFv, VL-(G4S)3 linker-VH; expressed in E. coli BL21 from pADL-22c, purified on Ni-NTA as histidine-tagged scFv, about 28 kDa; also called WT; KKO-scFv; not shown: histidine tag from the pADL-22c vector) scFv: DIQMIQSQKFMSTSVGDRVTVTCKASQNVGTNVAWYQQKPGQSPNALIYSASYRYSGVPDRFTGSGSGTDFTLTITNVQSEDLADYFCQQYNSYPLTFGTGTKLDLKGGGGSGGGGSGGGGSVQLQQSGAELVKPGASVKLSCKASGYTFTNYFIYWVKQRPGQGLEWIGEINPRNGDTDFNEKFESRATLTVDKSSSTAYMQLSSLTSEDSAIYYCTRSPYGNNYGFTYWGQGTLVTVSA	t
Mutant C scFv, scFv(S50N, Y53H) (scFv, VL-linker-VH; histidine-tagged, from E. coli BL21; also called Mut C; not shown: histidine tag from the pADL-22c vector) scFv: DIQMIQSQKFMSTSVGDRVTVTCKASQNVGTNVAWYQQKPGQSPNALIYNASHRYSGVPDRFTGSGSGTDFTLTITNVQSEDLADYFCQQYNSYPLTFGTGTKLDLKGGGGSGGGGSGGGGSVQLQQSGAELVKPGASVKLSCKASGYTFTNYFIYWVKQRPGQGLEWIGEINPRNGDTDFNEKFESRATLTVDKSSSTAYMQLSSLTSEDSAIYYCTRSPYGNNYGFTYWGQGTLVTVSA	t

# input for lookup
stdin: Evaluate Mutant F scFv, scFv(E183V, E186K, G223R) (scFv, VL-linker-VH; histidine-tagged, from E. coli BL21; also called Mut F; not shown: histidine tag from the pADL-22c vector) scFv: DIQMIQSQKFMSTSVGDRVTVTCKASQNVGTNVAWYQQKPGQSPNALIYSASYRYSGVPDRFTGSGSGTDFTLTITNVQSEDLADYFCQQYNSYPLTFGTGTKLDLKGGGGSGGGGSGGGGSVQLQQSGAELVKPGASVKLSCKASGYTFTNYFIYWVKQRPGQGLEWIGEINPRNGDTDFNVKFKSRATLTVDKSSSTAYMQLSSLTSEDSAIYYCTRSPYRNNYGFTYWGQGTLVTVSA : koff at minimum 0.0001 s⁻¹?
stdout: f
